test: Mitotoxicity / Mitotox safety margin (therapeutic window); assay type: cell-based; settings: mitotox or cytotox
Quick reference for Highest safe dose (μM) (mitotox or cytotox) among some molecules
Just the number in µM, nothing appended.

molecule | unit-tag | measured-number
C[C@@H]1CN([C@@H]2COc3cc(F)ccc3[C@H]2Nc2ncnc3[nH]c(C(F)(F)F)cc23)CCO1 | µM | 15.7
FC(F)(F)c1cc2c(N[C@H]3c4ccccc4CC[C@@H]3N3CC4(CCOCC4)C3)ncnc2[nH]1 (single isomer, unassigned) | µM | 8.3

Summary for this molecule, `CO[C@@H]1CCN([C@H]2COc3ccccc3[C@@H]2Nc2ncnc3[nH]c(C(F)(F)F)cc23)C1` : Highest safe dose (μM) (mitotox or cytotox) is 3.4

In plain terms, c1ccc2c(c1)CC[C@@H](N1CCOCC1)[C@@H]2Nc1ncnc2[nH]c(C3CC3)cc12 (single isomer, unassigned) has a documented Highest safe dose (μM) (mitotox or cytotox) of 25.0

response.value for FC(F)(F)c1cc2c(N[C@H]3c4ccccc4CC[C@@H]3C3CCOCC3)ncnc2[nH]1 (single isomer, unassigned) (field: Highest safe dose (μM) (mitotox or cytotox)) = 5.5

Data point: `CO[C@@H]1CCN([C@H]2COc3ccccc3[C@@H]2Nc2ncnc3[nH]c(C4CC4)cc23)C1` ; Highest safe dose (μM) (mitotox or cytotox) = 0.7

// Highest safe dose (μM) (mitotox or cytotox) lookup, molecule = `N#Cc1ccc2c(c1)CC[C@H](N1C[C@H]3COC[C@H]3C1)[C@H]2Nc1ncnc2[nH]c(C(F)(F)F)cc12` , result: 8.3

Highest safe dose (μM) (mitotox or cytotox) for `Fc1ccc2c(c1)CC[C@H](N1C[C@@H]3COC[C@H]3C1)[C@H]2Nc1ncnc2[nH]c(C3CC3)cc12` is 25.0

Just so you know, measured Highest safe dose (μM) (mitotox or cytotox) for C[C@@H]1CN([C@H]2COc3cc(F)ccc3[C@@H]2Nc2ncnc3[nH]c(C(F)(F)F)cc23)C[C@H](C)O1 [EP-0040946] came out at 25.0
